Record form. Attribute: inhibition at 30 min, 1.5 uG/mL. Fill in for each entry.
# Target or test system: hERG (Homo sapiens)
# Construct: expressed in transfected cells; host or cells: CHO cells (hERG-CHO)
# Sequence (Q12809 whole entry): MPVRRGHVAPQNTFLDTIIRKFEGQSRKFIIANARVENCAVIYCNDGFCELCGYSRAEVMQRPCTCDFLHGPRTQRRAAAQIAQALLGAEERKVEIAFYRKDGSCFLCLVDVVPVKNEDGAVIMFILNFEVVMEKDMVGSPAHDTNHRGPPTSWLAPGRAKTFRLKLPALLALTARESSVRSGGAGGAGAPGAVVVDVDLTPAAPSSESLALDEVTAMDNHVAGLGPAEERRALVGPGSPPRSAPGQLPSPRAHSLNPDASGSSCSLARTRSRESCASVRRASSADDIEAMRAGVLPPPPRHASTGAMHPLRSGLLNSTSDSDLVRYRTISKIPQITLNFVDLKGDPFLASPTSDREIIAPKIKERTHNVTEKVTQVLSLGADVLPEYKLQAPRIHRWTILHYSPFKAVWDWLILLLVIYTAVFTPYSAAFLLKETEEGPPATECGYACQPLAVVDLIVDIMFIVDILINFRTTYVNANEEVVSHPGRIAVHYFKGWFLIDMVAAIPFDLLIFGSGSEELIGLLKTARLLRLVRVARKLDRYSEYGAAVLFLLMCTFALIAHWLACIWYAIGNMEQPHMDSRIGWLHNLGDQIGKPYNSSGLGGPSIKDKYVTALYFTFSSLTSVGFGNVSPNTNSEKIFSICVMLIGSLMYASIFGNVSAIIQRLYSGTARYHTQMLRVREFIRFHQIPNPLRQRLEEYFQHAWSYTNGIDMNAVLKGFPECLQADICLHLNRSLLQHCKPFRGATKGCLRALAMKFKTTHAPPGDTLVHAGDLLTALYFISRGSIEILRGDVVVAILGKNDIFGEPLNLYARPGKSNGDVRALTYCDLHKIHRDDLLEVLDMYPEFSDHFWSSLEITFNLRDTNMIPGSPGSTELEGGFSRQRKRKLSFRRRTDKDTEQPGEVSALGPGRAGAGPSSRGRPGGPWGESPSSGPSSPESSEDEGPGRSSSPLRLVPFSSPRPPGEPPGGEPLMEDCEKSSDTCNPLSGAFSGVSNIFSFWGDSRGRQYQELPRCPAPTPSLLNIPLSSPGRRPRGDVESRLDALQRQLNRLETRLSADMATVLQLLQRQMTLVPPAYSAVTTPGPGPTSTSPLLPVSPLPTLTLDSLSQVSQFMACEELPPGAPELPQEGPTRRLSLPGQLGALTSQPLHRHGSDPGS
# Assay comment: hERG rubidium efflux in hERG-CHO cells
# Format: cell-based
# Experimental context: CHO cells that express hERG (hERG-CHO), pH 7.4, 1.5 uG/mL, read-out: HERG Rb efflux % Inhib 1.5 uG/mL
# Protocol: The base solution for the rubidium efflux studies was 144 mM NaCl, 20 mM HEPES-NaOH (pH 7.4), 2 mM CaCl2, 1 mM MgCl2, and 11 mM glucose. To prepare the rubidium loading buffer 5.4 mM RbCl was added. The wash buffer was supplemented with 5.4 mM KCl. […] hERG-CHO cells were plated into 96-well flat-bottom dishes and returned to the incubator for 24 hours. […] Supernatants were then collected and analyzed for rubidium content using automated flame atomic absorbance spectroscopy (ICR-8000, Aurora Biosciences). […]
Number only, in %; omit the unit.

Req: Can you look up the measured inhibition at 30 min, 1.5 uG/mL of CCOc1nc(N2C[C@H]3C(=O)N(C)C(=N)N[C@@]3(c3ccc(Cl)s3)C2)nc(CC)c1F for me?
Resp: 10

Req: Can you look up the measured inhibition at 30 min, 1.5 uG/mL of CCCc1nc(N2C[C@H]3C(=O)N(C)C(=N)N[C@@]3(c3ccc(Cl)s3)C2)nc(OC)c1F for me?
Resp: 23

Req: Can you look up the measured inhibition at 30 min, 1.5 uG/mL of Cc1nc(N2C[C@H]3C(=O)N(C)C(=N)N[C@@]3(c3ccc(C#N)s3)C2)nc(C)c1F for me?
Resp: -5

Req: Can you look up the measured inhibition at 30 min, 1.5 uG/mL of COc1nc(N2C[C@H]3C(=O)N(C)C(=N)N[C@@]3(c3ccc(Cl)s3)C2)nc(C)c1F for me?
Resp: 4

Req: Can you look up the measured inhibition at 30 min, 1.5 uG/mL of CCCc1nc(N2C[C@H]3C(=O)N(C)C(=N)N[C@@]3(c3ccc(C#N)s3)C2)nc(C)c1F for me?
Resp: 44

Req: Can you look up the measured inhibition at 30 min, 1.5 uG/mL of CCCc1nc(N2C[C@H]3C(=O)N(C)C(=N)N[C@@]3(c3ccc(Cl)s3)C2)nc(C)c1F for me?
Resp: 35

====

# Target or test system: CYP2C9 (Homo sapiens, UniProt P11712)
# Construct: human liver microsomes (0.4 mg/ml); from tissue; host or cells: human liver microsomes
# Sequence (P11712 whole entry): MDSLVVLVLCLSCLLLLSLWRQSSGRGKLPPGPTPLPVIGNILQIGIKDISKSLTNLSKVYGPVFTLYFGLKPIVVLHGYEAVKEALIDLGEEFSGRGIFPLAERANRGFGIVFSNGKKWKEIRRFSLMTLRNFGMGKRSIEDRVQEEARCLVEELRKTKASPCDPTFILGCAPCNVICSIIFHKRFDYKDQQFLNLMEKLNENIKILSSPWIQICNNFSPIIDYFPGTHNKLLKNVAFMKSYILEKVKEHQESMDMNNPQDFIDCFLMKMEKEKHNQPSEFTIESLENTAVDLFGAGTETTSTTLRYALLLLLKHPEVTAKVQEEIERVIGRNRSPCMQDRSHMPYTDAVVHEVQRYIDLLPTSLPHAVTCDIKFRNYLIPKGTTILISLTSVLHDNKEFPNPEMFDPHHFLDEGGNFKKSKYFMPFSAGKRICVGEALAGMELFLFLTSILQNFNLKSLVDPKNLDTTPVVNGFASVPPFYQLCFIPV
# Assay comment: CYP inhibition assay, human liver microsomes, CYP2C9
# Type: in vitro ADME
# Experimental context: 30 min pre-incubation with NADPH, read-out: CYP 2C9 IC50 pre
Readout: pIC50
Keep in mind that pIC50 stands for -log10 of concentration in molar terms.

Req: Can you look up the measured pIC50 of CCc1nc(N2C[C@H]3C(=O)N(C)C(=N)N[C@@]3(c3ccc(Cl)s3)C2)nc(OC)c1F [Example 4] for me?
Resp: 5.26

Req: Can you look up the measured pIC50 of CCOc1nc(N2C[C@H]3C(=O)N(C)C(=N)N[C@@]3(c3ccc(Cl)s3)C2)nc(CC)c1F [Example 5] for me?
Resp: 5.38
